All figures here come from ChEMBL document CHEMBL3351628.

System: Human immunodeficiency virus 1
Experiment description: Antiviral activity against HIV1 harboring reverse transcriptase […]/K103N double mutant infected in HEK293T cells transfected with plasmid VSV-G/pNL4-3.luc.R-E- assessed as inhibition of viral replication after 48 hrs by luciferase reporter gene assay relative HIV1
Format: functional, HEK-293T
Quick list: fold change (FC) per entry.
API note: the answer field is a bare number with no unit suffix.

Give the value of fold change (FC) reported for the following: `Cc1ccnc2c1NC(=O)c1cccnc1N2C1CC1`
161

Give the value of fold change (FC) reported for the following: `COc1ccc(CNc2nc(-c3ccccc3Cl)c(Cc3ccccc3)s2)cc1`
111

Give the value of fold change (FC) reported for the following: `COc1ccc(CNc2nc(-c3ccccc3F)c(Cc3ccccc3)s2)cc1`
84.5

Give the value of fold change (FC) reported for the following: `O=C1Nc2ccc(Cl)cc2[C@@](C#CC2CC2)(C(F)(F)F)O1`
2394

Give the value of fold change (FC) reported for the following: `COc1ccc(CNc2nc(-c3ccc(F)cc3F)c(Cc3ccccc3)s2)cc1`
83.8
